All figures here come from paper PMC7156736.

testSummary: plasma pharmacokinetics in patients (HPLC–MS/MS, non-compartmental analysis)
Type: in vivo, human
measurementParameters: human, plasma, oral, Dose-level 5: dacomitinib 15 mg QD + PD-0325901 6 mg BID; Cycle 1 Day 1; n = 8; read-out: AUC0-24h dacomitinib, mean (CV%)

compound: COc1cc2ncnc(Nc3ccc(F)c(Cl)c3)c2cc1NC(=O)/C=C/CN1CCCCC1 [dacomitinib]
valueUnit: ng·h/mL
AUC(0-t): 136

---

testSummary: plasma pharmacokinetics in patients (HPLC–MS/MS, non-compartmental analysis)
Assay type: in vivo, human
measurementParameters: human, plasma, oral, Dose-level 7: dacomitinib 30 mg (5/2) QD + PD-0325901 6 mg (5/2) BID; last day of concomitant use of both drugs; n = 2; read-out: Cmax dacomitinib, mean (CV%)

compound: COc1cc2ncnc(Nc3ccc(F)c(Cl)c3)c2cc1NC(=O)/C=C/CN1CCCCC1 [dacomitinib]
Cmax: 37.5 ng/mL
